B1: Pistol ribozyme (parent)
chain: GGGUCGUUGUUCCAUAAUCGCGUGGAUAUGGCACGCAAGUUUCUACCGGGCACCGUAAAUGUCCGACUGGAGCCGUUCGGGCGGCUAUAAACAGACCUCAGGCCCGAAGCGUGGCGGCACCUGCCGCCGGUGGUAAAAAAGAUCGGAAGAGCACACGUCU

Variants of: B1
Experiment: aptazyme ON/OFF ratio, guanine; higher = stronger switching; co-transcriptional cleavage with and without guanine
quantity: aptazyme ON/OFF ratio

INSERT INTO measurements (mutation_notation, recorded_result) VALUES
  ('U7C G9A U10C U11G C12U', 1.45),
  ('U7A G9U U10A U11G C12A C13G', 1.19),
  ('U7A U10C U11G C12U C13U', 1.2),
  ('U7G U8G G9A U10A U11A C12U', 1.35),
  ('G9C U10A U11G C13A', 1.21),
  ('U7G G9A U10A U11A C12G C13G', 1.19),
  ('U7C U8C G9U U10C C12U C13U', 1.28),
  ('U7G G9A U10G U11G C13G', 1.09),
  ('U8A G9U U10C U11G C13G', 1.05),
  ('U7G U8G U10G U11A C13U', 1.24),
  ('U7A U8C G9U U10G U11G C12A', 1.18),
  ('U7A U11A C13U', 1.13),
  ('U7C U8A G9A U10G C12G C13U', 1.27),
  ('U7G U8G G9U U10G C12U C13A', 1.17),
  ('U8C U11A', 1.15),
  ('U8A U10A U11A C13U', 1.06),
  ('U8C G9C U11A C13A', 1.04),
  ('U7A U8A G9C C13U', 1.13),
  ('U7C G9A U10C U11G C12G C13G', 1.11),
  ('U7G U8G G9A U11C C12U C13U', 1.02),
  ('U8A G9A U10A U11C C12U C13A', 1.14),
  ('U7G G9U U10G U11G C12G C13U', 1.27),
  ('U7C U8A G9A U10G U11C C13G', 1.05),
  ('U7A U8C G9A C12G', 1.43),
  ('U7A U8A U11C', 1.38),
  ('U7C U11A C12G C13A', 1.11),
  ('U7G U8G U10C U11A C12A C13U', 1.14),
  ('U7G U8A G9C U10A U11A C12A C13G', 1.03),
  ('U8C G9A U10G U11A C12A', 1.19),
  ('U8G G9A U10C U11C C13G', 1.03),
  ('U7C U8G U10A C13G', 1.15),
  ('U7G U8G G9A U10C U11C C13G', 0.991),
  ('U8G G9A U10G C12U C13A', 1.32),
  ('U7A U8C G9A U11A C13A', 1.16),
  ('U7G U8C G9C C12U', 1.28),
  ('U7C U8A G9A U10G U11C C12G', 1.21),
  ('U8C U10C U11A C12A C13U', 1.25),
  ('U10G U11C C12A C13G', 1.12),
  ('U7G G9U U10G U11C C12A C13A', 1.14),
  ('U7C U8G G9A C12U C13G', 1.35),
  ('U7A G9C U10A U11A C13A', 1.11),
  ('U7G U8A G9A C13G', 1.09),
  ('U7A U8C G9U U10G C12A C13U', 1.07),
  ('U7C U8C G9U U11A C12A C13U', 1.28),
  ('U7C G9A U10A U11A C13U', 1.16),
  ('U7G U8C U10C U11A C12U C13A', 1.12),
  ('U8C G9U U10A U11A C12U', 1.48),
  ('U7G U8C G9A U10A C12G C13A', 1.07),
  ('U7A G9A C13A', 1.24),
  ('U7C U8C U10A U11A C13A', 1.26),
  ('U7C U8G U10G U11G C12U C13G', 1.26),
  ('U7A G9C U11C C13U', 1.02),
  ('U7G U10A C12A C13G', 1.12),
  ('U7G U8A G9C U11A C12U C13G', 1.03),
  ('U7A U8A U10A U11C C12G C13G', 1.24),
  ('U7A U8A G9C U10C U11C C13G', 1.07),
  ('U7C G9U U11G C12A C13U', 1.14),
  ('U7A U8A U10A U11G C12A C13U', 1.18),
  ('U7A U8A G9U U11G C12G', 1.19),
  ('U7G U8C G9C U11C C12G C13A', 1.2),
  ('U7A U8G G9U U10A U11C C12A C13U', 1.37),
  ('U8G C12G C13U', 1.55),
  ('U7G G9U U10C U11A C12A', 1.58),
  ('U7C U10G C12G', 1.18),
  ('U7C U8C G9C U11C C12A C13A', 1.16),
  ('U7C U8G G9U U10A U11A C12G C13A', 1.18),
  ('U7C U11G C12A C13G', 1.17),
  ('U7A G9U U10C U11G C13U', 1.2),
  ('U11G C12G C13G', 1.27),
  ('U7C U8C G9A U10A U11C C12A C13A', 1.17),
  ('U7A U8A U10C U11G C12G C13A', 1.17),
  ('U7A U8G U10A U11G C12A C13U', 1.08),
  ('U7C U8G G9U U10C U11C C12U C13U', 1.09),
  ('U7C U8A U11G C12A', 1.08),
  ('U8G G9C U11C C12G C13A', 1.03),
  ('U7A U8A G9C U10G U11A C13U', 1.04),
  ('U7A U8C U11A C13A', 1.14),
  ('U7C U8A G9U U10G U11G C13G', 1.04),
  ('U7G U10G U11C C12G C13A', 1.14),
  ('U7A U8C G9U U10A C12G C13A', 1.11),
  ('U7G U8A G9C U10C U11C C12G', 1.03),
  ('U7C U8A G9A U10G U11C C12U', 1.07),
  ('U7G U8C G9C U10C C12G C13U', 1.08),
  ('U8A G9C U11G C12A', 1.06),
  ('U7A U10A U11A C12A C13A', 1.23),
  ('U7C U8A U11A C12U C13A', 1.16),
  ('U8G G9U U10A C12G C13A', 1.2),
  ('U7A U8G G9U U10C U11A C12G', 1.61),
  ('U7G U8G G9A U10C U11G C12G C13U', 1.08),
  ('U8G U10C U11A C12A C13G', 1.11),
  ('U7G U8G G9U U10C C12A C13G', 1.29);
